# measuredOn: Melanocortin receptor 5 (Mus musculus, UniProt P41149)
# Sequence (P41149 whole entry): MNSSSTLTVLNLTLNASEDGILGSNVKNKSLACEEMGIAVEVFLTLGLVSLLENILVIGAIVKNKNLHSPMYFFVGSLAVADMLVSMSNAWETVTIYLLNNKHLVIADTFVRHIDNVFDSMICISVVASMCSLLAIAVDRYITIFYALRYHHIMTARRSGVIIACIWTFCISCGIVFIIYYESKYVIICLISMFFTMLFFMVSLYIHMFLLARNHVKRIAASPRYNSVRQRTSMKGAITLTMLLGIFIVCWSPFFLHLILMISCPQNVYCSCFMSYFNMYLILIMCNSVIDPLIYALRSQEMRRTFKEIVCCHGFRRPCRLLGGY
# procedureText: Binding affinity to mouse MC5R expressed in HEK293 cells assessed as inhibition constant by schild plot analysis
# Assay type: cell-based
Square brackets hold non-standard residues; d marks the D form. Peptide text beside a SMILES is read from it. dPhe(4-I) = N[C@H](Cc1ccc(I)cc1)C(=O)O; 2Nal = N[C@@H](Cc1ccc2ccccc2c1)C(=O)O; hArg = N=C(N)NCCCC[C@H](N)C(=O)O

| molecule | unitName | Ki |
| --- | --- | --- |
| CC(=O)N[C@H](Cc1ccc(I)cc1)C(=O)N[C@@H](CCCNC(=N)N)C(=O)N[C@@H](Cc1ccc2ccccc2c1)C(=O)N[C@@H](CCCCNC(=N)N)C(N)=O (Ac-[dPhe(4-I)]R[2Nal][hArg]-NH2) | nM | 1000 |

* * *

# measuredOn: Melanocortin receptor 4 (Mus musculus, UniProt P56450)
# Sequence (P56450 whole entry): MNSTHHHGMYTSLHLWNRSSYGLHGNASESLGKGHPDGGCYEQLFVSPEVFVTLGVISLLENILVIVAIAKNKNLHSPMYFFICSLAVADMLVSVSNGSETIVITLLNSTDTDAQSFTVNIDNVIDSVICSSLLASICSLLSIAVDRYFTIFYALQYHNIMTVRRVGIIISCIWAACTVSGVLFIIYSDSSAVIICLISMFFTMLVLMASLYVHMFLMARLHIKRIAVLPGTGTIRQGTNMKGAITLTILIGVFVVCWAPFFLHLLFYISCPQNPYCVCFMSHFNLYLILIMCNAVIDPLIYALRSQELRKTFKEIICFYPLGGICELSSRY
# procedureText: Agonist activity against mouse MC4R expressed in HEK293 cells assessed as increase in cAMP level incubated for 2 hrs by AlphaScreen assay
Square brackets hold non-standard residues; d marks the D form. Peptide text beside a SMILES is read from it. dPhe(4-I) = N[C@H](Cc1ccc(I)cc1)C(=O)O; 2Nal = N[C@@H](Cc1ccc2ccccc2c1)C(=O)O; Dap = NC[C@H](N)C(=O)O
Documented EC50 across a set of molecules
property: EC50

| molecule | experimentalValue |
| --- | --- |
| CC(=O)N[C@H](Cc1ccc(I)cc1)C(=O)N[C@H](CCCCN)C(=O)N[C@@H](Cc1ccc2ccccc2c1)C(=O)N[C@@H](CCCNC(=N)N)C(N)=O (Ac-[dPhe(4-I)][dK][2Nal]R-NH2) | > 100 µM |
| CC(=O)N[C@H](Cc1ccc(I)cc1)C(=O)N[C@@H](Cc1c[nH]cn1)C(=O)N[C@@H](Cc1ccc2ccccc2c1)C(=O)N[C@@H](CCCNC(=N)N)C(N)=O (Ac-[dPhe(4-I)]H[2Nal]R-NH2) | > 100 µM |
| CC(=O)N[C@H](Cc1ccc(I)cc1)C(=O)N[C@@H](CCCNC(=N)N)C(=O)N[C@@H](Cc1ccc2ccccc2c1)C(=O)N[C@@H](CN)C(N)=O (Ac-[dPhe(4-I)]R[2Nal][Dap]-NH2) | > 100 µM |

* * *

# measuredOn: Melanocortin receptor 3 (Mus musculus)
# Sequence (P33033 whole entry): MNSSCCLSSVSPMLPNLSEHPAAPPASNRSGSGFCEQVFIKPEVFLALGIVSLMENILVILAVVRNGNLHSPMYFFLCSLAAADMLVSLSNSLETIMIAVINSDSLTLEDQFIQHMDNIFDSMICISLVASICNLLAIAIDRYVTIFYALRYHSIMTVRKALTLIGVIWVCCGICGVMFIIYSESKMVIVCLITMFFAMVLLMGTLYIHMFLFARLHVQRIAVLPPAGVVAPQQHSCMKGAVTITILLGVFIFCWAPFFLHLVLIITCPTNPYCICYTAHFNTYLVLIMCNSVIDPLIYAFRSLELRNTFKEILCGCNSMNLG
# procedureText: Agonist activity against mouse MC3R expressed in HEK293 cells assessed as increase in cAMP level incubated for 2 hrs by AlphaScreen assay
Square brackets hold non-standard residues; d marks the D form. Peptide text beside a SMILES is read from it. dPhe(4-I) = N[C@H](Cc1ccc(I)cc1)C(=O)O; 2Nal = N[C@@H](Cc1ccc2ccccc2c1)C(=O)O; hArg = N=C(N)NCCCC[C@H](N)C(=O)O; Cit = NC(=O)NCCC[C@H](N)C(=O)O; Orn = NCCC[C@H](N)C(=O)O; Dab = NCC[C@H](N)C(=O)O; Dap = NC[C@H](N)C(=O)O

| compound | EC50 |
| --- | --- |
| CC(=O)N[C@H](Cc1ccc(I)cc1)C(=O)N[C@@H](CCCNC(=N)N)C(=O)N[C@@H](Cc1ccc2ccccc2c1)C(=O)N[C@@H](CCCCNC(=N)N)C(N)=O (Ac-[dPhe(4-I)]R[2Nal][hArg]-NH2) | > 100 µM |
| CC(=O)N[C@H](Cc1ccc(I)cc1)C(=O)N[C@@H](CCCNC(=N)N)C(=O)N[C@@H](Cc1ccc2ccccc2c1)C(=O)N[C@@H](CCN)C(N)=O (Ac-[dPhe(4-I)]R[2Nal][Dab]-NH2) | > 100 µM |
| CC(=O)N[C@H](Cc1ccc(I)cc1)C(=O)N[C@@H](CCCNC(=N)N)C(=O)N[C@@H](Cc1ccc2ccccc2c1)C(=O)N[C@@H](CCCNC(N)=O)C(N)=O (Ac-[dPhe(4-I)]R[2Nal][Cit]-NH2) | > 100 µM |
| CC(=O)N[C@H](Cc1ccc(I)cc1)C(=O)N[C@@H](CCCNC(=N)N)C(=O)N[C@@H](Cc1ccc2ccccc2c1)C(=O)N[C@@H](CN)C(N)=O (Ac-[dPhe(4-I)]R[2Nal][Dap]-NH2) | > 100 µM |
| CC(=O)N[C@H](Cc1ccc(I)cc1)C(=O)N[C@@H](CCC(=O)O)C(=O)N[C@@H](Cc1ccc2ccccc2c1)C(=O)N[C@@H](CCCNC(=N)N)C(N)=O (Ac-[dPhe(4-I)]E[2Nal]R-NH2) | > 100 µM |
| CC(=O)N[C@H](Cc1ccc(I)cc1)C(=O)N[C@@H](CN)C(=O)N[C@@H](Cc1ccc2ccccc2c1)C(=O)N[C@@H](CCCNC(=N)N)C(N)=O (Ac-[dPhe(4-I)][Dap][2Nal]R-NH2) | > 100 µM |
| CC(=O)N[C@H](Cc1ccc(I)cc1)C(=O)N[C@@H](CCCN)C(=O)N[C@@H](Cc1ccc2ccccc2c1)C(=O)N[C@@H](CCCNC(=N)N)C(N)=O (Ac-[dPhe(4-I)][Orn][2Nal]R-NH2) | > 100 µM |
